# assay-target: Yer184c (UniProt P39961)
# Sequence: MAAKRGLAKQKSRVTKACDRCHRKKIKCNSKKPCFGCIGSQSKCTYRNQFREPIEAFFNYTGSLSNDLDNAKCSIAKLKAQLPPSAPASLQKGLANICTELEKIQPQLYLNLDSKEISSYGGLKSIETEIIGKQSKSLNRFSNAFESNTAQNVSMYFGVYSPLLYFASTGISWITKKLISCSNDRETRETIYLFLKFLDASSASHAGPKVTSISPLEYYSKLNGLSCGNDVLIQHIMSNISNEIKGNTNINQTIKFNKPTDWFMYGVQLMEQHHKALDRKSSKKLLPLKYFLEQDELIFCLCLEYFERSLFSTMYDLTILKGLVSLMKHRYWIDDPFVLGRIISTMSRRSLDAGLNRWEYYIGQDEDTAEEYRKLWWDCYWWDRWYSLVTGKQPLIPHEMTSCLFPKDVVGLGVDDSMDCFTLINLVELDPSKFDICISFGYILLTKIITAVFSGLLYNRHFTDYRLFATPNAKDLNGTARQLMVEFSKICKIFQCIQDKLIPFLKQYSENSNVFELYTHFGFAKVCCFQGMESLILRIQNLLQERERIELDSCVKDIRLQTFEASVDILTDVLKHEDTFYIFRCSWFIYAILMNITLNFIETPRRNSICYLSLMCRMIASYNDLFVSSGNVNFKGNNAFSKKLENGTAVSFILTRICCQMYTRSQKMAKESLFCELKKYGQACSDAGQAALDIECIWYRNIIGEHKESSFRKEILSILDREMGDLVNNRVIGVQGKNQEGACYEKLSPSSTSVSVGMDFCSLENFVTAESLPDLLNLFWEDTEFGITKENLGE
# assay-overview: PBM E-score (8-mer binding enrichment) (E-score (-0.5 to 0.5)); higher = stronger / more preferred TF binding
# condition-description: protein concentration: 100 nM; construct: GST-full length
In all, about 33,000 sequences were measured (“E-score (-0.5 to 0.5)”: median about -0.016, highest 2% from about 0.3 on). This is one part of a sample in which the highest values are shown more often than they occur.
measured-attribute: PBM E-score
No unit in the answer, only the number.

What reported PBM E-score corresponds to GCCGAGGC on Yer184c (UniProt P39961)?
0.386

What reported PBM E-score corresponds to CGATTCAA on Yer184c (UniProt P39961)?
-0.0538

What reported PBM E-score corresponds to ACCGAATA on Yer184c (UniProt P39961)?
0.173

What reported PBM E-score corresponds to AGGCGCCG on Yer184c (UniProt P39961)?
0.207

What reported PBM E-score corresponds to TCCGAAAA on Yer184c (UniProt P39961)?
0.264

Others:
What reported PBM E-score corresponds to GCCGAAAA on Yer184c (UniProt P39961)?
0.439

What reported PBM E-score corresponds to GCCGAGCC on Yer184c (UniProt P39961)?
0.34

---

# assay-target: Yer184c (UniProt P39961)
# Sequence: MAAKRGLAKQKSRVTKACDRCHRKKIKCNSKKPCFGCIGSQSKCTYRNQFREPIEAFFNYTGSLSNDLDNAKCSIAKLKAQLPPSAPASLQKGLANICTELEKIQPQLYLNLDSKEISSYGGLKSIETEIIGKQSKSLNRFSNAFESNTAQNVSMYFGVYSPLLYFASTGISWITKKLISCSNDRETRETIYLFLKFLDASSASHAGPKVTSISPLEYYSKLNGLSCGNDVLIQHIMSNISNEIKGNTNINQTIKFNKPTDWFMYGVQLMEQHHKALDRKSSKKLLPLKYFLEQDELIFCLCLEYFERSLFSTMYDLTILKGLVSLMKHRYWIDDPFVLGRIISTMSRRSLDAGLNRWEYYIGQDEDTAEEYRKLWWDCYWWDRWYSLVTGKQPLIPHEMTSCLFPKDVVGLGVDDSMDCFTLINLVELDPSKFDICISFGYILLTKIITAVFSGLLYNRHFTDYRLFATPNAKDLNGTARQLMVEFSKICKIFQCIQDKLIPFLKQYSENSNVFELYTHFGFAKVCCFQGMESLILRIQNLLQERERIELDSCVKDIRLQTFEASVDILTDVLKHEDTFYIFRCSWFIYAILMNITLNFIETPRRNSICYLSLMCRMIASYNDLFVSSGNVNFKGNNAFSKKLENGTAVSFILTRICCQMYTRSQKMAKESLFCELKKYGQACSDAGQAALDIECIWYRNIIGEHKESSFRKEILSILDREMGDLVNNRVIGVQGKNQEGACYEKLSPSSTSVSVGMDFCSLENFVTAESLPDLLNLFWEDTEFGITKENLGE
# assay-overview: PBM E-score (8-mer binding enrichment) (E-score (-0.5 to 0.5)); higher = stronger / more preferred TF binding
# condition-description: protein concentration: 100 nM; construct: GST-full length
The full ranking holds about 33,000 sequences; the median of “E-score (-0.5 to 0.5)” is about -0.016, and the highest 2% start at about 0.3. The full list was thinned out, with the highest values kept by preference.
measured-attribute: PBM E-score
No unit in the answer, only the number.

Some sequences with recorded PBM E-score:
Query (sequence): ATAGGAGG ; field requested: PBM E-score
-0.285

Query (sequence): AAACCGGC ; field requested: PBM E-score
0.313

Query (sequence): AAACCGGA ; field requested: PBM E-score
0.306

Query (sequence): AGACCGGC ; field requested: PBM E-score
0.128

Query (sequence): ACGCGGCA ; field requested: PBM E-score
0.096

Others:
Query (sequence): CGGTAGTA ; field requested: PBM E-score
0.0519

Query (sequence): AAACCGCC ; field requested: PBM E-score
0.147

Query (sequence): AAACCGGT ; field requested: PBM E-score
0.216

Query (sequence): CAGCGGCG ; field requested: PBM E-score
0.0785

Query (sequence): ACGCGGCG ; field requested: PBM E-score
0.113

Query (sequence): CCGCGGCG ; field requested: PBM E-score
0.326

---

# assay-target: Yer184c (UniProt P39961)
# Sequence: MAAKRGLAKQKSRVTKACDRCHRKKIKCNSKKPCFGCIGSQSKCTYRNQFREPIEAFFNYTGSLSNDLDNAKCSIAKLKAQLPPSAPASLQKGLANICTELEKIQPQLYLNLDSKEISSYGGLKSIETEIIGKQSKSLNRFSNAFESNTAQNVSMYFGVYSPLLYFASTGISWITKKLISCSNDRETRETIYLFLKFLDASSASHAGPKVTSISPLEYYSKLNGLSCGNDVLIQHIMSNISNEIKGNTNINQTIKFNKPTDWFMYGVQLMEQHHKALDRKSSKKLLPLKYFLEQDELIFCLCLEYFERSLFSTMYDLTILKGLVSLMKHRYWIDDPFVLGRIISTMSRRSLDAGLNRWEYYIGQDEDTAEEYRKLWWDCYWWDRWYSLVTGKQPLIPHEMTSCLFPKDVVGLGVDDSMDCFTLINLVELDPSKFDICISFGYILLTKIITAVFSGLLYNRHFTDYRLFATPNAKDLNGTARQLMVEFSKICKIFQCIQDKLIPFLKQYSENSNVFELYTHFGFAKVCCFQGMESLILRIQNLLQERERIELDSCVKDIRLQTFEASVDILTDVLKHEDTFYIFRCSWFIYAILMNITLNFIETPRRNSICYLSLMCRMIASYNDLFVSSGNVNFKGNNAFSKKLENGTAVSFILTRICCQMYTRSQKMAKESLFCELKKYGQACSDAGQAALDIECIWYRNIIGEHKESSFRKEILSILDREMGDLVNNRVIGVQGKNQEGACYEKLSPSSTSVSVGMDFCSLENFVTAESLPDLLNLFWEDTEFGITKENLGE
# assay-overview: PBM E-score (8-mer binding enrichment) (E-score (-0.5 to 0.5)); higher = stronger / more preferred TF binding
# condition-description: protein concentration: 100 nM; construct: GST-full length
Whole data set: some 33,000 sequences, median “E-score (-0.5 to 0.5)” near -0.016, cut for the highest 2% near 0.3. Many of the other results were omitted from the sample, so the highest values are more common in it than they were.
measured-attribute: PBM E-score

Query (sequence): CTGCCGTA ; field requested: PBM E-score
-0.00407

Query (sequence): AAGAGGAA ; field requested: PBM E-score
0.23

Query (sequence): GTACAATA ; field requested: PBM E-score
0.188

Query (sequence): GAGCCGGC ; field requested: PBM E-score
0.406

Query (sequence): CTGCCGGA ; field requested: PBM E-score
0.349

Others:
Query (sequence): ATGGTACG ; field requested: PBM E-score
0.0122

Query (sequence): ACGCCAAT ; field requested: PBM E-score
-0.0124

Query (sequence): CCGAGCCG ; field requested: PBM E-score
0.352

Query (sequence): TTAGCTAA ; field requested: PBM E-score
0.0769

Query (sequence): GAGCCCGC ; field requested: PBM E-score
-0.212

Query (sequence): GCTAACCA ; field requested: PBM E-score
-0.0625

Origin of values: the supplement of paper PMC3334620
